pKi: −log10 of the molar value.
The following compounds were reported with pKi values on Glycogen synthase kinase-3 beta (Homo sapiens, UniProt P49841) in different studies.

Example compounds with recorded pKi:
{"compound": "C=CCn1c(-c2nonc2N)nc2ccccc21", "pKi": "> 6.00"}
{"compound": "CCNc1ncc(CO)c(-c2c[nH]c(C(=O)NC(CO)c3ccccc3)c2)n1 (stereo not drawn)", "pKi": "< 6.00"}
{"compound": "N#Cc1cccc(-c2nnc3ccc(NCC(N)=O)nn23)c1", "pKi": "> 5.70"}
{"compound": "Fc1cccc2c(Nc3nc(-c4ccccc4C(F)(F)F)nc4c3CCCCCC4)n[nH]c12", "pKi": "> 7.00"}
{"compound": "c1ccc(C2CC2c2nc(Nc3n[nH]c4ccccc34)c3ccccc3n2)cc1 (stereo not drawn)", "pKi": "6.00 to 7.00"}

Each of the following entries comes with a recorded value; kindly state pKi for each.
1. Cc1cccc(C(CO)NC(=O)c2cc(-c3nc(Nc4ccccc4Cl)ncc3C)c[nH]2)c1 (stereo not drawn)
2. Cc1cc(C)cc(Nc2nccc(-c3nccs3)n2)c1
3. Cc1cnc(NC(CO)c2ccccc2)nc1-c1c[nH]c(C(=O)NC(CO)c2cccc(C(F)(F)F)c2)c1 (stereo not drawn)
4. Cc1nc(-c2ccccc2C(F)(F)F)nc(Nc2n[nH]c3c(F)cc(F)cc23)c1C

1. > 7.00
2. > 7.00
3. 6.00 to 7.00
4. > 7.00

* * *

Multiple publications report pKi for Glycogen synthase kinase-3 beta (Homo sapiens); what follows is a combined list.
pKi: −log10 of the molar value.

Example results:
{"structure string": "c1ccc(Nc2nc(Nc3cc(-c4ccco4)[nH]n3)cc(-c3ccccc3)n2)cc1", "tgt": "Glycogen synthase kinase-3 beta (Homo sapiens)", "pKi": "> 7.00"}
{"structure string": "CCOc1ccc(Nc2ncn(-c3ccccc3)n2)cc1", "tgt": "Glycogen synthase kinase-3 beta (Homo sapiens)", "pKi": "< 6.00"}
{"structure string": "c1ccc(COc2cccc(Nc3nccc(-c4nccs4)n3)c2)nc1", "tgt": "Glycogen synthase kinase-3 beta (Homo sapiens)", "pKi": "> 7.00"}
{"structure string": "COc1ccc(-c2nnc3ccc(NCC(N)=O)nn23)cc1", "tgt": "Glycogen synthase kinase-3 beta (Homo sapiens)", "pKi": "> 5.70"}
{"structure string": "c1ccc(COCc2nc(Nc3cc(C4CC4)[nH]n3)c3ccccc3n2)cc1", "tgt": "Glycogen synthase kinase-3 beta (Homo sapiens)", "pKi": "6.00 to 7.00"}

Please give pKi for each item listed below.
1. Fc1ccc2n[nH]c(Nc3nc(-c4ccccc4)nc4ccccc34)c2c1
2. Clc1ccc(-c2nc(Nc3cc(C4CC4)n[nH]3)c3ccccc3n2)cc1Cl
3. c1ccc(Nc2ncn(-c3ccnc(NC4CCCCC4)c3)n2)cc1
4. Fc1ccc2[nH]nc(Nc3nc(-c4ccccc4Cl)nc4c3CCC4)c2c1
5. COc1nc(Nc2cc(C)[nH]n2)cc(N2CCN(C)CC2)n1

1: > 7.00; 2: > 7.00; 3: 6.00 to 6.30; 4: > 7.00; 5: > 7.00

Can you give me pKi for all of these, one by one?
1. Fc1ccc2c(Nc3nc(-c4ccccc4C(F)(F)F)nc4ccccc34)n[nH]c2c1
2. FC(F)(F)c1ccc2[nH]nc(Nc3nc(-c4ccccc4)nc4c3CCCC4)c2c1
3. CN(C)c1ccc(-c2cnc3[nH]cc(-c4nncn4-c4cccc(F)c4F)c3c2)cc1
4. Cc1cc(Nc2nc(-c3ccc(Cl)cc3)nc3ccccc23)[nH]n1
5. c1ccc(-c2cc(Nc3nc[nH]n3)c3ccccc3n2)cc1
6. Nc1ccc2[nH]nc(Nc3nc(-c4ccccc4C(F)(F)F)nc4ccccc34)c2c1
7. Fc1cccc(-c2cnoc2-c2c[nH]c3ncc(-c4ncccn4)cc23)c1F
8. c1ccc2c(Nc3cc(C4CC4)[nH]n3)nc(Nc3ccc(N4CCOCC4)cc3)nc2c1

> 7.00
> 7.00
> 6.70
> 7.00
4.70 to 6.00
> 7.00
4.90 to 6.00
6.00 to 7.00

Request: pKi, test system Glycogen synthase kinase-3 beta (Homo sapiens), entry `COc1ccc(Nc2nnc3ccc(OC)nn23)c(OC)c1`
> 5.70
